- EXPERIMENTAL SYSTEM: UGT8 (Mus musculus, UniProt Q64676)
- Construct: Groups of 5 male C57Bl/6 mice, 6-9 wks of age (Charles River Laboratories); tissue Charles River Laboratories; host or cells: mouse kidney (adult C57Bl/6) and mid-/hind brain (neonatal P14-P21 mice)
- Sequence (Q64676 21-541): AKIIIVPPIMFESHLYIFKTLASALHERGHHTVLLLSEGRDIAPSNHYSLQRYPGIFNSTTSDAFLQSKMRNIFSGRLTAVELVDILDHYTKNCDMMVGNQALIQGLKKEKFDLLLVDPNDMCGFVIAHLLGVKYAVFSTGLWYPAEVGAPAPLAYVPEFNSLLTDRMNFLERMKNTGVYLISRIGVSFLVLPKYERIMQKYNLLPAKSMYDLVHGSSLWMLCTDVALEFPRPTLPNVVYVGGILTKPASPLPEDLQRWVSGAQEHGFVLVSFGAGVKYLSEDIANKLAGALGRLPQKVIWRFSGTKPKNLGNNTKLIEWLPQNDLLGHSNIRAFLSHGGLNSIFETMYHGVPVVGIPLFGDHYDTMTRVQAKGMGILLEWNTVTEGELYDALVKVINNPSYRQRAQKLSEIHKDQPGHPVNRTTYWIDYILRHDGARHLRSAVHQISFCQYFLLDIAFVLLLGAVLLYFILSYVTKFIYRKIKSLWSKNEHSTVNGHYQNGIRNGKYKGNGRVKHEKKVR
- MEASUREMENT NOTES: Acute in vivo target engagement in mouse kidney: inhibition of de novo GalCer and SFT synthesis (13C-Gal incorporation)
- ASSAY CONTEXT: single oral dose 3 mg/kg, 5 hr
MEASUREMENT NAME: kidney Sulfatide % inh

CNC(=O)c1csc2c(C(F)(F)F)cc(N3CCC(OC(=O)NC4CC4)CC3)nc12 C (C < 40%)
CNC(=O)c1csc2c(C(F)(F)F)cc(N3CCC(OC(=O)N[C@@H](C)CF)CC3)nc12 C (C < 40%)
CNC(=O)c1csc2c(C(F)(F)F)cc(O[C@@H]3CCN(C(=O)OCCOC(F)(F)F)[C@H](C)C3)nc12 C (C < 40%)
